The values you see were collected from patent US10640506B2.

Exercise: for every item that follows, state its recorded IC50.
MEASURED_TARGET: human JAK1 (a.a. 837-1142) (Homo sapiens, UniProt P23458)
Sequence (P23458 849-1154): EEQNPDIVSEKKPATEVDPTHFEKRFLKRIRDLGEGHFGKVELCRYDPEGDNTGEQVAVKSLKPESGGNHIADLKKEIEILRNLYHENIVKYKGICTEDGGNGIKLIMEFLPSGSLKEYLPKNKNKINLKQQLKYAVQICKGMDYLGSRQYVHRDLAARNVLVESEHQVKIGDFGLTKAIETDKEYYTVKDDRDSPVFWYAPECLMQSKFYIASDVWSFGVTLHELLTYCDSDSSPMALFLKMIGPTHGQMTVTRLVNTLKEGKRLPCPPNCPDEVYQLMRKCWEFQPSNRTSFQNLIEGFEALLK
PROTOCOL: In vitro JAK kinase assay (HTRF, phosphorylation of biotinylated peptide), JAK1
Assay type: biochemical
CONDITION_INFO: Table F; 1 mM ATP

Q: Find IC50 (human JAK1 (a.a. 837-1142) (Homo sapiens, UniProt P23458)) for the entry Cc1cc(OC2CCN([C@H]3C[C@@](CC#N)(n4cc(-c5ncnc6[nH]ccc56)cn4)C3)CC2)nc(C(F)(F)F)c1 [Example 151]
Ans: < 10 nM

Q: Field: IC50 (human JAK1 (a.a. 837-1142) (Homo sapiens, UniProt P23458)). Entry: CC(C)[C@H](C)NC(=O)N1CCN([C@H]2C[C@@](CC#N)(n3cc(-c4ncnc5[nH]ccc45)cn3)C2)CC1 [Example 111]
Ans: 10 to 25 nM

Q: Notebook: pull reported IC50 for human JAK1 (a.a. 837-1142) (Homo sapiens, UniProt P23458), entry Cc1cc(OC2CCN([C@H]3C[C@](CC#N)(n4cc(-c5ncnc6[nH]ccc56)cn4)C3)CC2)nc(C(F)(F)F)n1 [Example 145]
Ans: 10 to 25 nM

Q: Which IC50 is reported with human JAK1 (a.a. 837-1142) (Homo sapiens, UniProt P23458) for this entry: CC(C)CNC(=O)N1CCN([C@H]2C[C@](CC#N)(n3cc(-c4ncnc5[nH]ccc45)cn3)C2)CC1 [Example 101] ?
Ans: < 10 nM

Q: Enter reported IC50 observed with human JAK1 (a.a. 837-1142) (Homo sapiens, UniProt P23458) for N#CC[C@]1(n2cc(-c3ncnc4[nH]ccc34)cn2)C[C@H](N2CCC(Oc3cc(CN4CCCC4)cc(C(F)(F)F)n3)CC2)C1 [Example 158]
Ans: < 10 nM

Q: Observed IC50 on human JAK1 (a.a. 837-1142) (Homo sapiens, UniProt P23458) for COCc1cc(OC2CCN([C@H]3C[C@@](CC#N)(n4cc(-c5ncnc6[nH]ccc56)cn4)C3)CC2)nc(C(F)(F)F)c1 (single isomer, unassigned) [Example 121] , please.
Ans: 25 to 100 nM

---

MEASURED_TARGET: human JAK1 (a.a. 837-1142) (Homo sapiens)
PROTOCOL: In vitro JAK kinase assay (HTRF, phosphorylation of biotinylated peptide), JAK1
Format: biochemical
CONDITION_INFO: Table F; 1 mM ATP
Description: Compounds herein were tested for inhibitory activity of JAK targets according to the following in vitro assay described in Park et al., Analytical Biochemistry 1999, 269, 94-104. […] The phosphorylated peptide was detected by homogenous time resolved fluorescence (HTRF). […] Binding to the Europium labeled antibody took place for 40 minutes and HTRF signal was measured on a Fusion plate reader (Perkin Elmer, Boston, Mass.). […]
REPORTED_PROPERTY: IC50

Q: Tell me reported IC50 for `N#CC[C@]1(n2cc(-c3ncnc4[nH]ccc34)cn2)C[C@H](N2CCN(C(=O)c3cc(CO)nc(C(F)(F)F)n3)CC2)C1` , tested with human JAK1 (a.a. 837-1142) (Homo sapiens).
Ans: < 10 nM

Q: Param readout = IC50; param system = human JAK1 (a.a. 837-1142) (Homo sapiens); param query = `N#CC[C@]1(n2cc(-c3ncnc4[nH]ccc34)cn2)C[C@@H](N2CCN(C(=O)NC3CC3)CC2)C1` ; response: value
Ans: 10 to 25 nM

Q: So what IC50 did `CNCc1cc(C(=O)N2CCN([C@H]3C[C@](CC#N)(n4cc(-c5ncnc6[nH]ccc56)cn4)C3)CC2)nc(C(F)(F)F)n1` get with human JAK1 (a.a. 837-1142) (Homo sapiens)?
Ans: < 10 nM

Q: I'm curious: which IC50 was measured for `CCNCc1cc(OC2CCN([C@H]3C[C@](CC#N)(n4cc(-c5ncnc6[nH]ccc56)cn4)C3)CC2)nc(C(F)(F)F)n1` tested on human JAK1 (a.a. 837-1142) (Homo sapiens)?
Ans: 10 to 25 nM

Q: # query: IC50 | item `C[C@@H](NC(=O)N1CCN([C@H]2C[C@](CC#N)(n3cc(-c4ncnc5[nH]ccc45)cn3)C2)CC1)C(F)(F)F` | system: human JAK1 (a.a. 837-1142) (Homo sapiens)
Ans: < 10 nM

Q: Request: IC50, test system human JAK1 (a.a. 837-1142) (Homo sapiens), entry `N#CC[C@]1(n2cc(-c3ncnc4[nH]ccc34)cn2)C[C@H](N2CCC(Oc3cc(CN4CCC4)cc(C(F)(F)F)n3)CC2)C1`
Ans: < 10 nM
